molecular target: Fyn (UniProt P06241); experiment: phosphorylation enrichment, bacterial display (enrichment ratio); higher = better substrate or ligand; peptides without Tyr show the background;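 also: 11-residue human phosphosite peptides and single-mutation variants displayed on the E. coli surface, counted by deep sequencing, each peptide's frequency after selection divided by its frequency in the unselected input library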;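 also: frequency after pTyr selection over input frequency; kinase dosed for 20-30% of maximal phosphorylation in three min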
Sequence (P06241 whole entry, looked up): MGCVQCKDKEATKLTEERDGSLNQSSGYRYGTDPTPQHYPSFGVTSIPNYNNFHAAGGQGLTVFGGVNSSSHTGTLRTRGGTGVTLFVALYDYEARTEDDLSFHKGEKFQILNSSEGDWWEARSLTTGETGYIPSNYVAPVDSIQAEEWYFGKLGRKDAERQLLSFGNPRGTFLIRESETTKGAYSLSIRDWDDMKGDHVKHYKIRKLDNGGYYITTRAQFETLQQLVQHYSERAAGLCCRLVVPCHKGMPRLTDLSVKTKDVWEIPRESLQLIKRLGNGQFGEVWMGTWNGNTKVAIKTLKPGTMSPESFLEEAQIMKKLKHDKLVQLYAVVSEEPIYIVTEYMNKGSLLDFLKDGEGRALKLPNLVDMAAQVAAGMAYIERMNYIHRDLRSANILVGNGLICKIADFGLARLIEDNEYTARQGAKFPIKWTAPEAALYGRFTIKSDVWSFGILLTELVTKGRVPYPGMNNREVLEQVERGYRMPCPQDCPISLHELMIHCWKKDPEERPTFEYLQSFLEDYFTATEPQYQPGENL
// Not satisfied strictly below 0.7 in phosphorylation enrichment; Satisfied otherwise

- ERPGVYTNVVE [F11_Y608]: Not satisfied
- NACGLYYKLHN [GATA2_Y376]: Not satisfied
- EERKTYVNTML [TEK_Y1102_T1106M]: Not satisfied
- TVLEPYADPYY [ZC3H18_Y367]: Satisfied
- GDYYRSLAEVA [YWHAG_Y133_Y133S]: Satisfied

Exercise: Item AKKVFYVIETR [SHH_Y253] with phosphorylation enrichment of 0.7 or above?
Solution: Not satisfied

Exercise: Item KSDVVYTDWKK [ORM1_Y175] with phosphorylation enrichment of 0.7 or above?
Solution: Satisfied

Exercise: Item QSLEPYTKQQL [STAT3_Y640_V637L] with phosphorylation enrichment of 0.7 or above?
Solution: Not satisfied

Exercise: Item KASRKYYAMKI [AKT3_Y173_G171R] with phosphorylation enrichment of 0.7 or above?
Solution: Not satisfied

Exercise: Item KFVKMCDNHQL [MYO9A_Y203_Y203C_YF] with phosphorylation enrichment of 0.7 or above?
Solution: Not satisfied

Exercise: Item ILTLKYLIEHG [ACTG1_Y69_P70L] with phosphorylation enrichment of 0.7 or above?
Solution: Not satisfied

Exercise: Item MFNPFYGLFEF [NEDD4L_Y680_YF] with phosphorylation enrichment of 0.7 or above?
Solution: Satisfied

Exercise: Item ISDNAYQYMLT [MYH7_Y162] with phosphorylation enrichment of 0.7 or above?
Solution: Not satisfied

Exercise: Item QGCGIYKDFFR [PLA2G2D_Y82_S80G_YF] with phosphorylation enrichment of 0.7 or above?
Solution: Satisfied

Exercise: Item RAVLLYEFVGK [NATD1_Y45_YF] with phosphorylation enrichment of 0.7 or above?
Solution: Satisfied

Exercise: Item VIKDKYPQARF [APTX_Y209_K211Q_YF] with phosphorylation enrichment of 0.7 or above?
Solution: Not satisfied

Exercise: Item LAIEWYVVVCK [RHO_Y136_R135W] with phosphorylation enrichment of 0.7 or above?
Solution: Satisfied

Exercise: Item NPIGLYSAETL [LDB3_Y202] with phosphorylation enrichment of 0.7 or above?
Solution: Not satisfied

Exercise: Item HVIKLFGACSQ [RET_Y791_Y791F] with phosphorylation enrichment of 0.7 or above?
Solution: Satisfied

Exercise: Item ADNQRYAFMPL [TMEM87B_Y460_N456D] with phosphorylation enrichment of 0.7 or above?
Solution: Not satisfied

Exercise: Item GHLYAYNWISI [BEST1_Y227_D228N] with phosphorylation enrichment of 0.7 or above?
Solution: Satisfied

Exercise: Item RENGPYYASYP [GDAP2_Y487_T489A] with phosphorylation enrichment of 0.7 or above?
Solution: Satisfied
